Target: Adenosylhomocysteinase (Homo sapiens, UniProt P23526)
Sequence (P23526 whole entry): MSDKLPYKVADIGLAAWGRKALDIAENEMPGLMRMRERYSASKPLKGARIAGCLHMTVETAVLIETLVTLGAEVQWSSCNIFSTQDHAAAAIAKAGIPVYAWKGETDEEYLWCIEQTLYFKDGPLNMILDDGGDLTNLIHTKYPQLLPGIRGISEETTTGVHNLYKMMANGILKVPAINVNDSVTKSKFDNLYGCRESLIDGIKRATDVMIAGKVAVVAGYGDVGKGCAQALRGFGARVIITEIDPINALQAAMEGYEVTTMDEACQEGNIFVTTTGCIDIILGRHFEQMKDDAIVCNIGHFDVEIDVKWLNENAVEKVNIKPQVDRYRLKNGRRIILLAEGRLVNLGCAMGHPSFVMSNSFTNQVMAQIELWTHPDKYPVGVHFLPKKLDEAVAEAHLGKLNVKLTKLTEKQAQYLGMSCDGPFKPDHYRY
Test: Inhibition of human recombinant S-adenosyl-L-homocysteine hydrolase assessed as AdoHcy hydrolysis activity by HPLC analysis
pIC50: −log10 of the molar value.
PROPERTY_MEASURED: pIC50

INSERT INTO results (compound, property_measured, quantitative_result) VALUES
  ('CN(C(=O)CN(CC(=O)NC1CCCNC1)c1cc(Cl)ccc1Oc1ccc(Cl)cc1)C1Cc2ccccc2C1 (configuration not stated)', 'pIC50', 5.92),
  ('O=C(CN(CC(=O)N1CCc2ccccc2C1)c1cc(Cl)ccc1Oc1ccc(Cl)cc1)NCCN1CCCC1', 'pIC50', 4.77),
  ('O=C(CN(CC(=O)N1CCC(c2ccccc2)CC1)c1cc(Cl)ccc1Oc1ccc(Cl)cc1)NCCN1CCCC1', 'pIC50', 6.01);

[1] CN(C(=O)CN(CC(=O)NC1CCNC1)c1cc(Cl)ccc1Oc1ccc(Cl)cc1)C1Cc2ccccc2C1 (configuration not stated)
[2] O=C(CN(CC(=O)NC1Cc2ccccc2C1)c1cc(Cl)ccc1Oc1ccc(Cl)cc1)NCCN1CCCC1
Would you let me know which has the greater pIC50 value, 1 or 2 ? Indicate your choice by writing its label. 1
(1: 5.82, 2: 4.94)
